Origin of measurements: PubChem BioAssay AID1159580

method: chemical genetic growth profiling, strain panel (AID 1159580);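 further: tested at 20 µM; growth read once vehicle control cultures reached saturation at 30 °C; 1 = growth at the plate median or of vehicle wells; lower values mean less growth of the strain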
condition context: S. cerevisiae deletion strains, growth OD, locus YPL106C, strain sse1, hits give low values
In all, about 5,500 compounds went through this assay and about 2,000 (36%) were called active. Inconclusive results (about 18%) are left out. This is one part of the list.
Measured normalized growth, listed per entry for reference.

molecule: C[C@H](CCC(=O)O)[C@H]1CCC2C3C(CC[C@@]21C)[C@@]1(C)CC[C@@H](O)C[C@H]1C[C@H]3O (stereo not given in full)
normalized growth: 1.08 (inactive)
--
molecule: CSc1ccc2c(c1)N(CCC1CCCCN1C)c1ccccc1S2 (stereo not given)
normalized growth: 1.02 (inactive)
--
molecule: CC12CC3CC(C)(C1)CC(N)(C3)C2
normalized growth: 1.01 (inactive)
--
molecule: CCCCS(=N)(=O)CCC(N)C(=O)O (stereo not given)
normalized growth: 0.991 (inactive)
--
molecule: C=Cc1c(C)c2[n-]c1=Cc1[n-]c(c(CC)c1C)C=c1[n-]c3c(c1C)C(=O)C(C(=O)[O-])C=3c1[n-]c(c(C)c1CCC(=O)[O-])C=2.[Cu] (stereo not given)
normalized growth: 1.16 [resistant] (active)
--
molecule: CN[C@@H]1[C@H](OC2[C@H](O[C@H]3[C@H](O)[C@@H](O)[C@H](N=C(N)N)[C@@H](O)[C@@H]3N=C(N)N)O[C@@H](C)[C@]2(O)C=O)O[C@@H](CO)[C@H](O)[C@H]1O (stereo not given in full)
normalized growth: 0.987 (inactive)
--
molecule: Nc1cc(C(Cl)=C(Cl)Cl)c(S(N)(=O)=O)cc1S(N)(=O)=O
normalized growth: 0.997 (inactive)
--
molecule: COc1cc(S(C)=O)ccc1-c1nc2ncccc2[nH]1 (stereo not given)
normalized growth: 0.947 (inactive)
--
molecule: O=c1cc(-c2ccccc2)oc2cccc(O)c12
normalized growth: 0.973 (inactive)
--
molecule: c1ccc2nc(N3CCNCC3)ccc2c1
normalized growth: 1 (inactive)
--
molecule: CCCC(C(=O)OCCN(CC)CC)(c1ccccc1)c1ccccc1
normalized growth: 1.02 (inactive)
--
molecule: Cc1cc(O)c(C=O)c2c1C(=O)Oc1c(COC(=O)/C=C/C(=O)O)c(O)c(C(=O)O)c(C)c1O2
normalized growth: 0.942 (inactive)
--
molecule: CC1(C)C(O)CC(O)C2(C)C1CC(O)C1(C)C2CCC2(C)C(c3ccoc3)OC(=O)C3OC321 (stereo not given)
normalized growth: 0.988 (inactive)
--
molecule: CN(C)CCOC(=O)COc1ccc(Cl)cc1
normalized growth: 0.878 (inactive)
--
molecule: COc1cc([C@@H]2c3cc4c(cc3[C@H](OC(C)=O)[C@H]3COC(=O)[C@@H]23)OCO4)cc(OC)c1OC
normalized growth: 1.01 (inactive)
--
molecule: COc1ccc(C(=O)CC(=O)c2ccc(C(C)(C)C)cc2)cc1
normalized growth: 1 (inactive)
--
molecule: C=C1C(C2(C)C=CC(=O)C(C)(C)C2CC(=O)OC)CC[C@@]2(C)[C@H](c3ccoc3)OC(=O)C3OC132 (stereo not given in full)
normalized growth: 1.04 (inactive)
--
molecule: CCOC(=O)[C@H](CCc1ccccc1)N[C@@H](C)C(=O)N1Cc2ccccc2C[C@H]1C(=O)O
normalized growth: 1 (inactive)
--
molecule: NS(=O)(=O)c1cc2c(cc1Cl)NC(C1CC3C=CC1C3)NS2(=O)=O (stereo not given)
normalized growth: 0.96 (inactive)
--
molecule: CCC(=O)Nc1ccc(Cl)c(Cl)c1
normalized growth: 0.952 (inactive)
--
molecule: Nc1ccn(C2O[C@H](CO)[C@@H](O)[C@H]2O)c(=O)n1 (stereo not given in full)
normalized growth: 0.992 (inactive)
--
molecule: C[C@H](N)[C@H](O)c1cccc(O)c1
normalized growth: 1.03 (inactive)
--
molecule: COc1ccc(C(=O)N2CCCC2=O)cc1
normalized growth: 0.925 (inactive)
--
molecule: c1ccc2c(c1)CN1CCCC1=N2
normalized growth: 1.02 (inactive)
--
molecule: Cc1cc(C)cc(OCC2CNC(=O)O2)c1 (stereo not given)
normalized growth: 0.969 (inactive)
